Molecular target: IDH1 R132H (Homo sapiens, UniProt O75874, R132H)
Sequence (O75874 whole entry R132H): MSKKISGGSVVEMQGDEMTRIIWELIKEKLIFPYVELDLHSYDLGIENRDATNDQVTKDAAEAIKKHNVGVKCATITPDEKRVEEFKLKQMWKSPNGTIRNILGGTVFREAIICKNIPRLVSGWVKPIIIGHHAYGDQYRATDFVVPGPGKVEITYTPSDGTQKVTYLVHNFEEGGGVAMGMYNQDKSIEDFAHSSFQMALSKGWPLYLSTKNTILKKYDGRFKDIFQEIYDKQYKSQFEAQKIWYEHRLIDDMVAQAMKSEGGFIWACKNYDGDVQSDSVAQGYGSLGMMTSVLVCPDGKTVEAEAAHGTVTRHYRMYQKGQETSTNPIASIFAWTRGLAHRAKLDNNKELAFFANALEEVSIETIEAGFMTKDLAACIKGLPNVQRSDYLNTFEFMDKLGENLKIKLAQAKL
Experiment: IDH1 R132H enzymatic assay (NADPH depletion coupled to diaphorase/resazurin)
Assay type: biochemical
Conditions: IDH1 R132H enzymatic inhibition, IC50 class
Description: Assays were conducted in a 1536-well black solid-bottom plate with a final assay volume of 9 μL. Specifically, for IDH1 R132H, 3 μL of enzyme (4 mM β-ME, 0.0005 mg/mL IDH1 R132H, 150 mM NaCl, 20 mM Tris pH 7.5, 10 mM MgCl2, 0.05% BSA) were added to the plate, followed by the addition of 23 nL of test compound in DMSO. […]
Here the recorded IC50 is given for each entry.

Examples with their reported IC50 follow.
Compound	Measured Property	Result
O=C1CCCc2c1cc(-c1nc(-c3ccc(Cl)cc3)cs1)c(=O)n2-c1ccncc1 [Compound 368]	IC50	> 20000 nM
CCc1cccc(CC)c1-n1c(C)c(C(=O)N(C)C)cc(-c2nc(-c3ccc(Cl)cc3)cs2)c1=O [Compound 271]	IC50	1000 to 5000 nM
CCc1cccc(CC)c1-n1c(C)c(C(=O)N2CCNC(CO)C2)cc(-c2nc(-c3ccc(Cl)cc3)cs2)c1=O (centres unmarked) [Compound 106]	IC50	< 300 nM

Please give measured IC50 of the following entry: CCc1cccc(CC)c1-n1c2c(cc(-c3nc(-c4ccccc4Cl)cs3)c1=O)C(=O)CC(C)(C)C2 [Compound 213]
1000 to 5000 nM

State its IC50: CC(C)c1ccccc1-n1c2c(cc(-c3nc(-c4ccc(Cl)cc4)cs3)c1=O)C(=O)CC(C)(C)C2 [Compound 178]
300 to 1000 nM

Give IC50 for the following compound: CC(C)n1c2c(cc(-c3nc(-c4ccc(Cl)cc4)cs3)c1=O)C(=O)CC(C)(C)C2 [Compound 55]
> 20000 nM

Give the reported value of IC50 for this record: CCc1cccc(CC)c1-n1c(C)c(C(=O)NC2CCCC(N)C2)cc(-c2nc(-c3ccc(Cl)cc3)cs2)c1=O (mixture of isomers) [Compound 126]
5000 to 20000 nM

Report IC50 for CCc1cccc(CC)c1N1C(=O)C(c2nc(-c3ccc(Cl)cc3)cs2)CC(C(=O)N2CCNCC2)=C1CC(C)C (centres unmarked) [Compound 356]
300 to 1000 nM

---

molecular target: IDH1 R132H (Homo sapiens, UniProt O75874, R132H); assay: IDH1 R132H enzymatic assay (NADPH depletion coupled to diaphorase/resazurin); assay type: biochemical; conditions: IDH1 R132H enzymatic inhibition, IC50 class
Measured Property: IC50

Answered cases to consult:
Compound	Target	IC50
COc1c(C(=O)O)cccc1-n1c2c(cc(-c3nc(-c4ccc(Cl)cc4)cs3)c1=O)C(=O)CC(C)(C)C2 [Compound 174]	IDH1 R132H (Homo sapiens, UniProt O75874, R132H)	> 20000 nM
CCc1cccc(CC)c1-n1c(CC(C)C)c(C(=O)N2CCNC(C)C2C)cc(-c2nc(-c3ccc(Cl)cc3)cs2)c1=O (stereo not shown) [Compound 107]	IDH1 R132H (Homo sapiens, UniProt O75874, R132H)	300 to 1000 nM
CCc1cccc(CC)c1-n1c2c(cc(-c3nc(-c4ccncc4)cs3)c1=O)C(=O)CC(C)(C)C2 [Compound 132]	IDH1 R132H (Homo sapiens, UniProt O75874, R132H)	1000 to 5000 nM

Give IDH1 R132H (Homo sapiens, UniProt O75874, R132H) IC50 for the following compound: CCc1cccc(CC)c1-n1c(CC(C)C)c(C(=O)N2CCNCC2CO)cc(-c2nc(-c3ccc(Cl)cc3)cs2)c1=O (stereo not shown) [Compound 272]
300 to 1000 nM

Look up and report measured IC50 (IDH1 R132H (Homo sapiens, UniProt O75874, R132H)) for the following compound: CCc1cccc(CC)c1-n1c(CC(C)C)c(C(=O)N2CCNC(CO)C2)cc(-c2nc(-c3ccc(Cl)cc3)cs2)c1=O (stereo not shown) [Compound 201]
< 300 nM

Write IC50 of CCc1cccc(CC)c1-n1c(C)c(C(=O)N(C)CCO)cc(-c2nc(-c3ccc(Cl)cc3)cs2)c1=O [Compound 308] ; system used: IDH1 R132H (Homo sapiens, UniProt O75874, R132H)
1000 to 5000 nM

Print IDH1 R132H (Homo sapiens, UniProt O75874, R132H) IC50 for COc1ccc(OC)c(-n2c3c(cc(-n4cc(-c5ccccc5)nn4)c2=O)C(=O)CC(C)(C)C3)c1 [Compound 261] .
5000 to 20000 nM

---

biological target: IDH1 R132C (Homo sapiens, UniProt O75874, R132C); test: IDH1 R132C enzymatic assay (NADPH depletion coupled to diaphorase/resazurin); assay type: biochemical; conditions: enzymatic inhibition, IDH1 R132C
Sequence (O75874 whole entry R132C): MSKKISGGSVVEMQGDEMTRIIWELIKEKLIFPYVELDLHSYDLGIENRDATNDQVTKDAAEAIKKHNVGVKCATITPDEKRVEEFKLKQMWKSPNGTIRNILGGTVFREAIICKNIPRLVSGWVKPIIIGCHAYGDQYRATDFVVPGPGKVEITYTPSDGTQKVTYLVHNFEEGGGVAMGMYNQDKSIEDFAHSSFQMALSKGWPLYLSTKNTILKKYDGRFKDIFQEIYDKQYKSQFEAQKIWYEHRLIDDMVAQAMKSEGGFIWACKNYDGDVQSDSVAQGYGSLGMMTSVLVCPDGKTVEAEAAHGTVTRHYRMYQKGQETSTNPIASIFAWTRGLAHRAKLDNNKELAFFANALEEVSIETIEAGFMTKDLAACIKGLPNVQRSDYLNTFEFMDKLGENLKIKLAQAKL
Listing of recorded IC50 by entry.

Here are 5 molecules together with their reported answers.
Molecule	Measured Property	Result
CC(C)=Cc1c(C(=O)N2CCNCC2)cc(-c2nc(-c3ccc(Cl)cc3)cs2)c(=O)n1-c1cc(Cl)ccc1OC(C)C	IC50	< 300 nM
COc1ccc(Cl)c(-n2c(C=C(C)C)c(C(=O)N3CCNCC3)cc(-c3nc(-c4ccc(Cl)cc4)cs3)c2=O)c1	IC50	< 300 nM
CCc1cccc(CC)c1-n1c(C2CC2)c(C(=O)N2CCNCC2)cc(-c2nc(-c3ccc(Cl)cc3)cs2)c1=O	IC50	< 300 nM
Cc1ccccc1Oc1nc(C)c(C(=O)N2CCNCC2)cc1-c1nc(-c2ccc(Cl)cc2)cs1	IC50	5000 to 20000 nM
COc1ccccc1-n1c2c(cc(-c3nc(-c4ccc(Cl)cc4)cs3)c1=O)C(=O)CCC2	IC50	1000 to 5000 nM

Report value only: IC50, IDH1 R132C (Homo sapiens, UniProt O75874, R132C), "COc1ccncc1-n1c2c(cc(-c3nc(-c4ccc(Cl)cc4)cs3)c1=O)C(=O)CC(C)(C)C2"
5000 to 20000 nM

Give measured IC50 for "CCOc1ncc(F)cc1-n1c(C=C(C)C)c(C(=O)N2CCNCC2)cc(-c2nc(-c3ccc(C(F)F)nc3)cs2)c1=O" (IDH1 R132C (Homo sapiens, UniProt O75874, R132C)).
1000 to 5000 nM

Print IDH1 R132C (Homo sapiens, UniProt O75874, R132C) IC50 for "COc1ccc(-n2c3c(cc(-c4nc(-c5ccc(Cl)cc5)cs4)c2=O)C(=O)CC(C)(C)C3)c(OC)c1" .
> 20000 nM

---

Readings of pIC50 for the listed compounds
molecular target: IDH1 R132H (Homo sapiens, UniProt O75874, R132H); assay: IDH1 R132H enzymatic assay (NADPH depletion coupled to diaphorase/resazurin); format: biochemical; settings: enzymatic inhibition, IDH1 R132H
pIC50: −log10 of the molar value.

Reference set (5 entries):
Cpd Smiles	Measured Property	Result
CCc1cccc(CC)c1-n1c(C=C(C)C)c(C(=O)N2CCNCC2)cc(-c2nc(-c3ccc(C(F)(F)F)nc3)cs2)c1=O	pIC50	> 6.52
CCc1cccc(CC)c1-n1c(C=C(C)C)c(C(=O)N2CCNCC2)cc(-c2nn(-c3ccc(Cl)cc3)cc2C(F)(F)F)c1=O	pIC50	5.30 to 6.00
COc1ccc(C#N)cc1-n1c2c(cc(-c3nc(-c4ccc(Cl)cc4)cs3)c1=O)C(=O)CC(C)(C)C2	pIC50	5.30 to 6.00
CCOc1ncc(Cl)cc1-n1c(C=C(C)C)c(C(=O)N2CCNCC2)cc(-c2nc(-c3ccc(C(F)F)nc3)cs2)c1=O	pIC50	> 6.52
CCc1ccccc1-n1c(C=C(C)C)c(C(=O)N2CCNCC2)cc(-c2nc(-c3ccc(Cl)cc3)cs2)c1=O	pIC50	> 6.52

For the compound "CCc1cccc(CC)c1-n1c(CC(C)C)c(C(=O)N2CCNCC2)cc(-c2nc(-c3ccc(Cl)cc3)c(C(F)(F)F)s2)c1=O" , give its measured pIC50 value.
6.00 to 6.52

---

// reported pIC50 per item
biological target: IDH1 R132H (Homo sapiens, UniProt O75874, R132H); assay: IDH1 R132H enzymatic assay (NADPH depletion coupled to diaphorase/resazurin); assay type: biochemical; conditions: IDH1 R132H enzymatic inhibition, IC50 class
pIC50: −log10 of the molar value.

Molecule	Target	pIC50
CCc1cccc(CC)c1-n1c(CC(C)C)c(C(=O)N2CCN[C@@H](C(=O)O)C2)cc(-c2nc(-c3ccc(Cl)cc3)cs2)c1=O	IDH1 R132H (Homo sapiens, UniProt O75874, R132H)	6.00 to 6.52
COc1ccc(OC)c(-n2c3c(cc(-c4nc(-c5ccc(Cl)cc5)cs4)c2=O)C(=O)NCC3)c1	IDH1 R132H (Homo sapiens, UniProt O75874, R132H)	5.30 to 6.00
Cc1ccc(N)cc1-n1c2c(cc(-c3nc(-c4ccc(Cl)cc4)cs3)c1=O)C(=O)CC(C)(C)C2	IDH1 R132H (Homo sapiens, UniProt O75874, R132H)	5.30 to 6.00

Give pIC50 for the following molecule: CCc1cccc(CC)c1-n1c(C)c(C(=O)NC2CCCCC2O)cc(-c2nc(-c3ccc(Cl)cc3)cs2)c1=O (stereo not shown)
5.30 to 6.00

Indicate the recorded pIC50 value for this molecule: "CCc1cccc(CC)c1-n1c(C)c(C(=O)N2CCN[C@@H](C)C2)cc(-c2nc(-c3ccc(Cl)cc3)cs2)c1=O"
> 6.52

Indicate the recorded pIC50 value for this molecule: "CCc1cccc(CC)c1-n1c(C)c(C(=O)N2CCCCC2)cc(-c2nc(-c3ccc(Cl)cc3)cs2)c1=O"
5.30 to 6.00

Input CCc1cccc(CC)c1-n1c(C=C(C)C)c(C(=O)N2CCNCC2CC(C)C)cc(-c2nc(-c3ccc(Cl)cc3)cs2)c1=O (stereo not shown) , output reported pIC50.
6.00 to 6.52
